Reference source for all entries: patent US20240247080A1

Kindly supply the reported EC50 hNPY2R 100% hP (CreLuc) values for the records listed here.
measured.target: T1, NPY2 receptor (human (printed as hNPY2R), UniProt P49146 1-381)
T1 sequence (looked up): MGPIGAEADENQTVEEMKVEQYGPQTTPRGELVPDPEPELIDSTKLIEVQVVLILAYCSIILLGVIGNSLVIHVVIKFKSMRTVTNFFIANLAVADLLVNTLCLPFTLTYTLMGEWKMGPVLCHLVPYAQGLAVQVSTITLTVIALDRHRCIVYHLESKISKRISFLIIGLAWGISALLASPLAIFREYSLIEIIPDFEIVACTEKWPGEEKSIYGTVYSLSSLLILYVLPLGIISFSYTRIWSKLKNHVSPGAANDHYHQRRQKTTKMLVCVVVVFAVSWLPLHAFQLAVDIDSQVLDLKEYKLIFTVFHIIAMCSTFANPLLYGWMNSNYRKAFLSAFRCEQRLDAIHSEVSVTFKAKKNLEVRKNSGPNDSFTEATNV
assay.details: cell-based or functional assay
Starred links: 1 amine or outer side, 2 acyl side, 3 side chain; linkers in the order of their positions; H or OH if unused. Non-standard residues stand in square brackets, D forms with d. Groups on a side chain read outwards from the residue. No end group written: not given here. *: point of attachment. C20 diacid = O=C(O)CCCCCCCCCCCCCCCCCCC(=O)*; C18 diacid = O=C(O)CCCCCCCCCCCCCCCCC(=O)*; γGlu = O=C(O)[C@H](CCC(=O)[*:2])N[*:1]; AEEA = NCCOCCOCC(=O)O; Aib = CC(C)(N)C(=O)O

Recorded EC50 hNPY2R 100% hP (CreLuc) (binder Y[Aib]EGTFTSDYSI[Aib]LEKQAE[Aib]AFVEWLIK([AEEA-AEEA-γGlu-γGlu-γGlu-γGlu-C18 diacid])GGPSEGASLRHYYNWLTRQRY-NH2 (also: TFA salt) [Compound 251] ): 48.7 nM

The recorded EC50 hNPY2R 100% hP (CreLuc) for entry YXEGTFTSDYSIXLEKQAQXAFVQWLIKGGPSEGASLRHYYNWLTRXRY (Aib at 2, 13, 20; bHGln (beta-homo-L-glutamine) at 47; K28 side chain carries C20DA-gGlu-gGlu-gGlu-gGlu-gGlu-gGlu-eLys; C-terminal amide) [Compound 186] equals 904 nM

Form: binder = Y[Aib]EGTFTSDYSI[Aib]LEKQAQ[Aib]EFVQWLIK([γGlu-γGlu-γGlu-γGlu-C20 diacid])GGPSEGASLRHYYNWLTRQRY-NH2 (also: TFA salt) [Compound 194] ; EC50 hNPY2R 100% hP (CreLuc) = 93.7 nM

Looking up YXEGTFTSDYSIXLEKQAQXAFVEWLIKGGPSSGASLRHYYNWRTRQRY (Aib at 2, 13, 20; D-Arg at 44; K28 side chain carries C20DA-gGlu-gGlu-gGlu-gGlu-Glu-gGlu-eLys (so in the source); C-terminal amide) [Compound 190] , I see its EC50 hNPY2R 100% hP (CreLuc) listed as > 1000 nM

Record Y[Aib]EGTFTSDYSI[Aib]LEKQAQ[Aib]AFVEWLIKGGPSSYASLRHYYNWLTRQRY-NH2 (not fully specified (residue 28); also: TFA salt) [Compound 183] , field EC50 hNPY2R 100% hP (CreLuc): 56.6 nM
